The measured values listed here are drawn from patent US12162820B2.

TARGET UNDER TEST: ATX (autotaxin) (Homo sapiens)
Construct: purchased Cayman 10803
TEST DESCRIPTION: Autotaxin Inhibition Screening Assay (choline release from LPC, LPC-CR)
Type: biochemical
PROTOCOL CONDITIONS: 4 μM compound
MEASURED PARAMETER: inhibition at 4 µM

{"COMPOUND": "O=C(/C=C/c1ccc(COc2ccc3c(c2)CC/C(=C\\c2cc(C(F)(F)F)cc(C(F)(F)F)c2)C3=O)cc1)NO", "inhibition at 4 µM": "50 to 80%"}

Input: Given the entry CCN(CC)c1ccc(C(=O)NC2CCc3cc(/C=C/C(=O)NCCCCCC(=O)NO)ccc32)cc1 (stereo not shown) , report its measured inhibition at 4 µM.
Output: < 50%

Input: Repeat for the following compound: O=C(/C=C/c1ccc2c(c1)CCCC2OCc1cc(C(F)(F)F)cc(C(F)(F)F)c1)NO (stereo not shown)
Output: < 50%

###

TARGET UNDER TEST: ATX (autotaxin) (Homo sapiens)
Construct: purchased Cayman 10803
TEST DESCRIPTION: Autotaxin Inhibition Screening Assay (choline release from LPC, LPC-CR)
Format: biochemical
PROTOCOL CONDITIONS: 50 μM compound
Listed here: items and their measured inhibition at 50 µM.

The examples below pair each entry with its known result.
{"COMPOUND": "O=C(CCCCCCC(=O)Nc1ccc2c(c1)CCCC2=O)NO", "TEST RESULT": "< 50%"}
{"COMPOUND": "COc1ccc(C(=O)NC2CCc3cc(/C=C/C(=O)NO)ccc32)cc1 (stereo not shown)", "TEST RESULT": "< 50%"}
{"COMPOUND": "O=C(CCCCCCC(=O)Nc1ccc2c(c1)CCC(Cc1cc(C(F)(F)F)cc(C(F)(F)F)c1)C2=O)NO (stereo not shown)", "TEST RESULT": "> 80%"}
{"COMPOUND": "COc1ccc2c(c1)CCC2NC(=O)CCCCCCC(=O)Nc1ccc(F)cc1N (stereo not shown)", "TEST RESULT": "< 50%"}
{"COMPOUND": "CN(C(=O)OCc1cc(C(F)(F)F)cc(C(F)(F)F)c1)C1CCc2cc(/C=C/C(=O)NO)ccc21 (stereo not shown)", "TEST RESULT": "50 to 80%"}

Input: What inhibition at 50 µM value was documented for this compound, "Nc1ccccc1NC(=O)c1ccc(COc2ccc3c(c2)CC/C(=C\c2cc(C(F)(F)F)cc(C(F)(F)F)c2)C3=O)cc1" ?
Output: < 50%

Input: And for "O=C(/C=C/c1ccc2c(c1)CC/C(=C\c1cc(C(F)(F)F)cc(C(F)(F)F)c1)C2=O)NCCCCCC(=O)NO" ?
Output: > 80%

###

TARGET UNDER TEST: HDAC1 (Homo sapiens)
Construct: purchased Enzo Life Sciences
Sequence (Q13547 whole entry): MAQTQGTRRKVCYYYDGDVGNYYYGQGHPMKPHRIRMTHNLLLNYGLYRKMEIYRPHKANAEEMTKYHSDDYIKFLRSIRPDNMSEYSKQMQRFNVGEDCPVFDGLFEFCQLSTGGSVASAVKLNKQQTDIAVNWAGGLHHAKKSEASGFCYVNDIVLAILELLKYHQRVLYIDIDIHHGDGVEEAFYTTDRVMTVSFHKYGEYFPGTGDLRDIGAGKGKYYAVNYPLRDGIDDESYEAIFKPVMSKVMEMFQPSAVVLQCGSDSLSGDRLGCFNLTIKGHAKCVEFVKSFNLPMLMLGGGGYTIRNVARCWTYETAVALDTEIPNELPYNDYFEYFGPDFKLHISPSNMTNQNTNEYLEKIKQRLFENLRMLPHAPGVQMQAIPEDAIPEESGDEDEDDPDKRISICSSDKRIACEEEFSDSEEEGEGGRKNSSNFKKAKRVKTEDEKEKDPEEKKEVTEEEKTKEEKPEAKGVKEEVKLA
TEST DESCRIPTION: HDAC Inhibition Screening Assay (FLUOR DE LYS Fluorimetric Drug Discovery Kit), HDAC1
Assay type: biochemical
PROTOCOL CONDITIONS: 50 μM compound
MEASURED PARAMETER: inhibition at 50 µM

Known results for compounds:
{"COMPOUND": "O=C(CCCCCCC(=O)Nc1ccc2c(c1)CCC(Cc1cc(C(F)(F)F)cc(C(F)(F)F)c1)C2=O)NO (stereo not shown)", "inhibition at 50 µM": "> 80%"}
{"COMPOUND": "O=C(CCCCCCC(=O)NC1CCCc2cc(Br)ccc21)NO (stereo not shown)", "inhibition at 50 µM": "50 to 80%"}
{"COMPOUND": "O=C(CCCCCCC(=O)Nc1ccc2c(c1)CC/C(=C\\c1cc(C(F)(F)F)cc(C(F)(F)F)c1)C2=O)NO", "inhibition at 50 µM": "> 80%"}
{"COMPOUND": "O=C(/C=C/c1ccc2c(c1)CCC2NC(=O)c1ccc(F)cc1)NCCCCCC(=O)NO (stereo not shown)", "inhibition at 50 µM": "> 80%"}
{"COMPOUND": "Nc1cc(F)ccc1NC(=O)CCCCCCC(=O)Nc1ccc2c(c1)CC/C(=C\\c1cc(C(F)(F)F)cc(C(F)(F)F)c1)C2=O", "inhibition at 50 µM": "< 50%"}
{"COMPOUND": "O=C(/C=C/c1ccc2c(c1)CCC2NCc1cc(C(F)(F)F)cc(C(F)(F)F)c1)NO (stereo not shown)", "inhibition at 50 µM": "> 80%"}

Moving on to the next compound.
Input: Look up inhibition at 50 µM for this compound: Nc1cc(F)ccc1NC(=O)c1ccc(COc2ccc3c(c2)CC(Cc2cc(C(F)(F)F)cc(C(F)(F)F)c2)C3=O)cc1 (stereo not shown)
Output: < 50%
